Target: HGFA (Homo sapiens)
Construct: His6 tag (N); seven amino acid spacer and seven amino acid TEV cleavage site (N); Honey Bee melittin signal peptide (N); virus raised in Sf9)
Assay: Chromogenic kinetic enzyme inhibitor assay of HGFA
Settings: Table 4.1; chromogenic substrate Pefachrome FVIIa
pIC50: −log10 of the molar value.
MEASURED_ATTRIBUTE: pIC50

Use the examples below as a reference point.
| MOLECULE | pIC50 |
| --- | --- |
| CC(=O)N[C@@H](CCCCN)C(=O)N[C@@H](CCC(N)=O)C(=O)N[C@@H](CC(C)C)C(=O)N[C@@H](CCCNC(=N)N)C(=O)c1nccs1 [Compound 5, Ac-KQLR(SEQ ID NO: 1)-kt] | 6.35 |
| CC(=O)N[C@@H](CO)C(=O)N[C@@H](CCCNC(=N)N)C(=O)N[C@@H](CC(C)C)C(=O)N[C@@H](CCCNC(=N)N)C(=O)c1nccs1 [Compound 6e, Ac-SRLR(SEQ ID NO: 15)-kt] | 6.52 |

[I] CC(=O)N[C@@H](Cc1c[nH]c2ccccc12)C(=O)N[C@@H](CCCCN)C(=O)N[C@@H](CC(C)C)C(=O)N[C@@H](CCCNC(=N)N)C(=O)c1nccs1 [Compound 6b, Ac-WKLR(SEQ ID NO: 12)-kt]
[II] CC(=O)N[C@@H](CO)C(=O)N[C@@H](CCC(N)=O)C(=O)N[C@@H](CC(C)C)C(=O)N[C@@H](CCCNC(=N)N)C(=O)c1nccs1 [Compound 5f, Ac-SQLR(SEQ ID NO: 7)-kt]
[III] CC(=O)N[C@@H](CO)C(=O)N[C@@H](CCCCN)C(=O)N[C@@H](Cc1ccccc1)C(=O)N[C@H](CCCNC(=N)N)C(=O)c1nccs1
Which order do these items take when sorted by rising pIC50? List them. List each label, following the requested order.
III, I, II
(III: 4.97, I: 6.49, II: 6.74)

====

Biological target: HGFA (Homo sapiens)
Construct: His6 tag (N); seven amino acid spacer and seven amino acid TEV cleavage site (N); Honey Bee melittin signal peptide (N); made in house; host or cells: High 5 insect cells (baculovirus; virus raised in Sf9)
Test: Fluorescent kinetic enzyme inhibitor assay of HGFA
Assay type: biochemical
Settings: Table 6.1; Fluorogenic Assay; read-out: HGFA Ki
Starred links: 1 amine or outer side, 2 acyl side, 3 side chain; linkers in the order of their positions; H or OH if unused. Non-standard residues stand in square brackets, D forms with d. Residues, ends and D or L forms follow the SMILES beside them. X1 = N=C(N)NCCC[C@H](N[*:1])C(=O)c1nc2ccc(C(=O)[*:2])cc2s1
Each entry below lists one item and its recorded pKi value.
Lab note — pKi values are minus log10 of concentrations in M.

Use the examples below as a reference point.
| COMPOUND | READOUT_NUMBER |
| --- | --- |
| CC(C)C[C@H](NC(=O)[C@@H](N)CC(C)C)C(=O)N[C@@H](CCCNC(=N)N)C(=O)c1nc2ccc(C(=O)N[C@H](C(N)=O)C(C)C)cc2s1 [Compound 7182, H-LLR-kbt V amide] | 7.09 |
| CC(C)C[C@H](NC(=O)[C@H](CCCNC(=N)N)NC(=O)[C@H](CCCCN)NC(=O)CCCCC[N+]1=C(/C=C/C=C/C=C2/N(C)c3ccc4ccccc4c3C2(C)C)C(C)(C)c2c1ccc1ccccc21)C(=O)N[C@@H](CCCNC(=N)N)C(=O)c1nc2ccccc2s1 [Compound 1178-2, Cy5.5-KRLR(SEQ ID NO: 8)-kbt] | 6.22 |

Next compound, please.
pKi measured on CC(=O)N[C@@H](CO)C(=O)N[C@@H](CCCCN)C(=O)N[C@@H](CC(C)C)C(=O)N[C@@H](CCCNC(=N)N)C(=O)c1nc2ccc(C(=O)N[C@H](C(N)=O)C(C)C)cc2s1 [Compound 7116, Ac-SKLR(SEQ ID NO: 10)-Kbt-Val— NH2] (Ac-SKL[X1]V-NH2) = 7.89

====

Molecular target: matriptase (Homo sapiens)
Construct: Charles Craik, UCSF (obtained from another laboratory)
Sequence (Q9Y5Y6 615-855 limits assumed): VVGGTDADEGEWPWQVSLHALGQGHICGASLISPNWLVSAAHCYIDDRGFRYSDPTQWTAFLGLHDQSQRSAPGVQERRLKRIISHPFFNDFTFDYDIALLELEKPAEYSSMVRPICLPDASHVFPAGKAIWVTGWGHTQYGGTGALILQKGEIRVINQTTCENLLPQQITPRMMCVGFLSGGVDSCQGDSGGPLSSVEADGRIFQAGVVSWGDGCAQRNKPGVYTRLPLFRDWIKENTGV
Assay: Fluorescent kinetic enzyme inhibitor assay of matriptase
Type: biochemical
Conditions: Table 9.1; Fluorogenic Assay
MEASURED_ATTRIBUTE: Ki (µM)

| CHEMICAL_STRING | OUTPUT_UNIT | Ki |
| --- | --- | --- |
| N=C(N)c1cccc(C[C@H](NS(=O)(=O)c2ccc3ccccc3c2)C(=O)N2CCN(C(=O)Cc3ccc(F)cc3)CC2)c1 | µM | 2.8 |
| CCOC(=O)N1CCN(C(=O)[C@H](Cc2cccc(C(=N)N)c2)NS(=O)(=O)c2ccc3ccccc3c2)CC1 | µM | 2.78 |
| CC(C)c1cc(C(C)C)c(S(=O)(=O)N[C@@H](Cc2cccc(C(=N)N)c2)C(=O)N2CCN(c3ccccc3)CC2)c(C(C)C)c1 | µM | 0.76 |

====

Target: Factor Xa (Homo sapiens)
Sequence (P00742 235-488 limits assumed): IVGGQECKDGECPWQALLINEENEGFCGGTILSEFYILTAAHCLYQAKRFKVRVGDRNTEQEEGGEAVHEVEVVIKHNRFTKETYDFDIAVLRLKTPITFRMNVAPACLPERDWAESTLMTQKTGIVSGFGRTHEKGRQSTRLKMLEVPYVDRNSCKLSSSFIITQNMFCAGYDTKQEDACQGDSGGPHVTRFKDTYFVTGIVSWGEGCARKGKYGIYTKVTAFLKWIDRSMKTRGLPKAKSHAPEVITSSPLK
Sequence (P00742 41-179 partner limits assumed): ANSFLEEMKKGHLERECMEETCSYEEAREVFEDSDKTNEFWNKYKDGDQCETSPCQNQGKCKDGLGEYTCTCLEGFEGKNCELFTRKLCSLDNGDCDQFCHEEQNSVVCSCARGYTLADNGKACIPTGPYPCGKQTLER
Test: Chromogenic kinetic enzyme assay of Factor Xa
Format: biochemical
Conditions: Table 6.2; headed Fluorogenic Assay; read-out: Factor Xa Ki
Starred links: 1 amine or outer side, 2 acyl side, 3 side chain; linkers in the order of their positions; H or OH if unused. Non-standard residues stand in square brackets, D forms with d. Residues, ends and D or L forms follow the SMILES beside them. X1 = N=C(N)NCCC[C@H](N[*:1])C(=O)c1nc2ccc(C(=O)[*:2])cc2s1
Each entry below lists one item and its recorded pKi value.
Lab note — pKi values are minus log10 of concentrations in M.

Use the examples below as a reference point.
| COMPOUND | TARGET_ENTITY | READOUT_NUMBER |
| --- | --- | --- |
| CC(=O)N[C@@H](CCCCN)C(=O)N[C@@H](CCCNC(=N)N)C(=O)N[C@@H](CC(C)C)C(=O)N[C@@H](CCCNC(=N)N)C(=O)c1nc2ccc(C(=O)N[C@H](C(N)=O)C(C)C)cc2s1 [Compound 7115, Ac-KRLR(SEQ ID NO: 8)-Kbt-Val—NH2] (Ac-KRL[X1]V-NH2) | Factor Xa (Homo sapiens) | 7.77 |
| CC(=O)N[C@@H](Cc1ccccc1)C(=O)N[C@@H](CC(C)C)C(=O)N[C@@H](Cc1ccccc1)C(=O)N[C@@H](CCCNC(=N)N)C(=O)c1nc2ccccc2s1 [Compound 7063, Ac-FLFR(SEQ ID NO: 19)-Kbt] | Factor Xa (Homo sapiens) | 7.88 |
| CC(C)C[C@H](NC(=O)[C@H](CCCNC(=N)N)NC(=O)[C@@H](N)Cc1c[nH]c2ccccc12)C(=O)N[C@@H](CCCNC(=N)N)C(=O)c1nc2ccccc2s1 [Compound 7117, H-WRLR(SEQ ID NO: 9)-Kbt] | Factor Xa (Homo sapiens) | 8.62 |

Next compound, please.
pKi measured on CC(=O)N[C@@H](CCCCN)C(=O)N[C@@H](CCCNC(=N)N)C(=O)N[C@@H](CC(C)C)C(=O)N[C@@H](CCCNC(=N)N)C(=O)c1nc2ccccc2s1 [Compound 7054, Ac-KRLR(SEQ ID NO: 8)-Kbt] = 7.04

====

Target: HGFA (Homo sapiens, UniProt Q04756)
Construct: His6 tag (N); seven amino acid spacer and seven amino acid TEV cleavage site (N); Honey Bee melittin signal peptide (N); made in house; host or cells: High 5 insect cells (baculovirus; virus raised in Sf9)
Sequence (Q04756 373-655): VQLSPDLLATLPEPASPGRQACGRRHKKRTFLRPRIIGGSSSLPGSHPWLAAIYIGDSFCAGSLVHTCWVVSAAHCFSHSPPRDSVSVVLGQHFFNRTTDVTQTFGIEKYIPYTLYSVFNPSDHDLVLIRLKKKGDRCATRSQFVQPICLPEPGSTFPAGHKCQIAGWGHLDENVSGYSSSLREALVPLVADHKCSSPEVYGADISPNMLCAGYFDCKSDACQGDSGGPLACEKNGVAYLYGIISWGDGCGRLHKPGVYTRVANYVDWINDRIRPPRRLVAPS
Assay: Fluorescent kinetic enzyme inhibitor assay of HGFA
Type: biochemical
Conditions: Table 6.1; Fluorogenic Assay; read-out: HGFA Ki
Each entry below lists one item and its recorded Ki value.

| CHEMICAL_STRING | Ki |
| --- | --- |
| N=C(N)NCCC[C@H](NC(=O)[C@H](CO)NC(=O)OCC1c2ccccc2-c2ccccc21)C(=O)c1nc2ccccc2s1 | > 20 µM |
| N=C(N)NCCC[C@H](NC(=O)[C@H](CC(=O)O)NC(=O)OCC1c2ccccc2-c2ccccc21)C(=O)c1nc2ccccc2s1 | > 20 µM |

Ki measured on C[C@@H](O)[C@H](NC(=O)OCC1c2ccccc2-c2ccccc21)C(=O)N[C@@H](CCCNC(=N)N)C(=O)c1nc2ccccc2s1 = > 20 µM
